TEST TARGET: K28H/Q32H GB1 (Streptococcus sp. group G, UniProt P06654, K254H/Q258H)
Construct: made in house
ASSAY TEXT: Isothermal titration calorimetry (ITC) at 298 K, single-site binding model
EXPERIMENTAL PARAMETERS: pH 6.4; ΔH extrapolated to 235 K; listed as CuII-NTA; read-out: Predicted KD at 235 K
ENDPOINT NAME: pKd
Lab note: report pKd as minus log10 of the concentration in molar units, number only.

Q: What measured pKd goes with O=C([O-])CN(CC(=O)[O-])CC(=O)[O-].[Cu+2] ?
A: 5.37

The measured values listed here are drawn from paper PMC8006131.
